Retention listing for selected molecules.
- Tested on: Mus musculus
- assay_remarks: Retention for passive avoidance learning in mice at dose 2.5 mg/kg
- Type: functional, organism-based
- Design: dose 2.5 mg/kg
Write it as a number; the unit % goes unstated.

{"columns": ["molecule", "Retention, %"],
 "data": [
  ["Clc1ccccc1Oc1cccnc1", 40],
  ["Nc1ccccc1Oc1cccnc1", 70],
  ["COc1cc2c(cc1OC)C1CC(=O)C(CC(C)C)CN1CC2 (stereo not drawn)", 63],
  ["CCCC(C)C1(CC)C(=O)NC(=O)NC1=O (stereo not drawn)", 7],
  ["c1ccc(Oc2cccnc2)cc1", 90],
  ["O=C1NC(=O)C(c2ccccc2)(c2ccccc2)N1", 75],
  ["Brc1ccc(Oc2cccnc2)cc1", 70]
]}

// moving on: another record for Retention
Consider the molecule "Cc1ncccc1Oc1ccccc1[N+](=O)[O-]" . State its measured Retention. 70

---

- System: Mus musculus
- assay_remarks: Compound was tested for cognitive activity by measuring retention for passive avoidance learning in mice at dose 0.32 mg/kg
- Format: functional, organism-based
- Design: dose 0.32 mg/kg
Sorting guide: entries reporting Retention beneath 70% go in the 1 pile, the rest go in the 0 pile.

Previously resolved entries follow.
{"columns": ["molecule", "label"],
 "data": [
  ["CN1[C@@H]2C[C@@H](OC(=O)[C@H](CO)c3ccccc3)C[C@H]1[C@@H]1O[C@@H]12", 1],
  ["O=c1[nH]c2ccccc2n1C1CCN(CCCC(c2ccc(F)cc2)c2ccc(F)cc2)CC1", 1],
  ["C=C(C)[C@@H]1[C@H]2OC(=O)[C@@H]1[C@]1(O)C[C@H]3OC34C(=O)O[C@H]2[C@@]41C.CC(C)(O)[C@@H]1[C@H]2OC(=O)[C@@H]1[C@]1(O)C[C@H]3OC34C(=O)O[C@H]2[C@@]41C (some centres not stated)", 1],
  ["C[C@H](N)Cc1ccccc1", 0]
]}

Next item in the queue.
Does the reported Retention of the following molecule sit strictly below 70%? "CNC(=O)Oc1ccc2c(c1)[C@]1(C)CCN(C)[C@@H]1N2C" 1

---

Retention listing for selected compounds.
- Tested on: Mus musculus
- assay_remarks: Compound was tested for cognitive activity by measuring retention for passive avoidance learning in mice at dose 0.63 mg/kg
- Type: functional, organism-based
- Parameters: dose 0.63 mg/kg
Write it as a number; the unit % goes unstated.

{"columns": ["smiles_input", "Retention (%)"],
 "data": [
  ["[Cl-].[Li+]", 60],
  ["O=C1C[C@@H]2OCC=C3CN4CC[C@]56c7ccccc7N1[C@H]5[C@H]2[C@H]3C[C@H]46", 75],
  ["Cn1c(=O)c2c(ncn2C)n(C)c1=O", 70]
]}

Consider the compound "CN1CCC[C@H]1c1cccnc1" . State its measured Retention. 75

---

- Tested on: Mus musculus
- assay_remarks: Retention for passive avoidance learning in mice at dose 2.5 mg/kg
- Type: functional, organism-based
- Parameters: dose 2.5 mg/kg
Retention listing for selected molecules.

Please review the entries below; each comes with its answer.
{"columns": ["molecule", "Retention"],
 "data": [
  ["Clc1ccc(Oc2cccnc2)cc1", "70%"],
  ["CN(C)CCCN1c2ccccc2Sc2ccc(Cl)cc21", "70%"],
  ["[Cl-].[Li+]", "70%"],
  ["COC(=O)C(c1ccccc1)C1CCCCN1 (configuration not stated)", "50%"],
  ["CN1CCC[C@H]1c1cccnc1", "27%"],
  ["Cn1c(=O)c2c(ncn2C)n(C)c1=O", "37%"]
]}

Consider the molecule "Fc1ccccc1Oc1cccnc1" . State its measured Retention. 80%
